These measurements were taken from patent US20250171418A1.

TARGET UNDER TEST: MDR1 (Homo sapiens)
Construct: expressed in transfected cells; host or cells: MDCKII (Madin-Darby canine kidney) cells
Sequence (P08183 whole entry): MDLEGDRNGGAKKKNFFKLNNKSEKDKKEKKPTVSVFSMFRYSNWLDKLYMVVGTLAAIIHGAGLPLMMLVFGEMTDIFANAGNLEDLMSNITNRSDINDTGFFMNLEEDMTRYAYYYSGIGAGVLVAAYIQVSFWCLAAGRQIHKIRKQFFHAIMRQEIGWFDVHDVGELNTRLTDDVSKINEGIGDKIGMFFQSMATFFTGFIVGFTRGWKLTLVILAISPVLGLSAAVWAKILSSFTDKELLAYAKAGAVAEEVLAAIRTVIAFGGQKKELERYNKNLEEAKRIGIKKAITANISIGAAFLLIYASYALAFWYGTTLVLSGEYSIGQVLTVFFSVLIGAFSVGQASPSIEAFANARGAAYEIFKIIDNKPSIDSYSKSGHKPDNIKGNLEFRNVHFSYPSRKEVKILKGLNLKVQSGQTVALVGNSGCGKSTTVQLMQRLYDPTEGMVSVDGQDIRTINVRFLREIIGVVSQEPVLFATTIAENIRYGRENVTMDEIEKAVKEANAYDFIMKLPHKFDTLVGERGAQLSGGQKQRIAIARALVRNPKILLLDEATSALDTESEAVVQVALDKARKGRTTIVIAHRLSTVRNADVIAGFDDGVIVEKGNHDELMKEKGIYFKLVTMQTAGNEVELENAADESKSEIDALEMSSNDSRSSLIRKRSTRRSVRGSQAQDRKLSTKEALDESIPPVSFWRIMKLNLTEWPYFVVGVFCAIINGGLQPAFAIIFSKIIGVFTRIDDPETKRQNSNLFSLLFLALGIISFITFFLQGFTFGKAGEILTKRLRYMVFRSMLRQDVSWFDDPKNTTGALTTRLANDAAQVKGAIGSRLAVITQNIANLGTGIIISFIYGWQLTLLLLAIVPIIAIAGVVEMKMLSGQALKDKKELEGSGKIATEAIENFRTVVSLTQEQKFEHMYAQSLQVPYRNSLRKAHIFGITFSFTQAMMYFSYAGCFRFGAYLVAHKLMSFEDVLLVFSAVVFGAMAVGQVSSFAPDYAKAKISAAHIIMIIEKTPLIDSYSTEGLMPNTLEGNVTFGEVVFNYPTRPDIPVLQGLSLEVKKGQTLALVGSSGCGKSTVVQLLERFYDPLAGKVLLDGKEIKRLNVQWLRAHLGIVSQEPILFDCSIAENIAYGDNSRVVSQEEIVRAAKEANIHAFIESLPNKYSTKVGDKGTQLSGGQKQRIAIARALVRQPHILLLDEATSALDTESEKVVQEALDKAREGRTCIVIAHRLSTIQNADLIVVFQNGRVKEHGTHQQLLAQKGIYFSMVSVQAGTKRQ
PROTOCOL DETAILS: In vitro human transporter efflux, MDCKII cells expressing MDR1
Assay type: in vitro ADME
MEASUREMENT CONTEXT: MDCK-MDR1, pH 7.4, read-out: MDCK-MDR1 Papp AB
MEASUREMENT LABEL: Papp A→B at 2 h, 10 μM (×10⁻⁶ cm/s)

>  <MOLECULE>
Cc1nc2ccc(CN3CCN(c4ccc(C(=O)NCC(F)F)nc4F)CC3)c(F)c2[nH]c1=O

>  <Papp A→B at 2 h, 10 μM [×10⁻⁶ cm/s]>
20.9

$$$$
>  <MOLECULE>
Cc1nc2ccc(CN3CCN(c4ccc(C(=O)NC5CC5)nc4F)CC3)c(F)c2[nH]c1=O

>  <Papp A→B at 2 h, 10 μM [×10⁻⁶ cm/s]>
16.5

$$$$
>  <MOLECULE>
Cc1nc2ccc(CN3CCN(c4ccc(C(=O)N[C@@H]5CC5(F)F)nc4F)CC3)c(F)c2[nH]c1=O (single isomer, unassigned)

>  <Papp A→B at 2 h, 10 μM [×10⁻⁶ cm/s]>
16.6

$$$$
